This collection of values is drawn from ChEMBL document CHEMBL3988442.

# Test system: Wolbachia pipientis
# ASSAY NOTES: Anti-Wolbachia Cell-Based Screen
# Assay type: functional
# Design: scale not given: in the data most compounds retested in dose-response had high values
# EXPERIMENTAL PARAMETERS: 5 µM
Screen size: about 48,000 compounds; about 13,000 (27%) showed an effect of 50% or more. Some of the results follow.
ENDPOINT NAME: Percent Effect (%)
# value in %; strip the unit string

Ask: What reported Percent Effect corresponds to CC(C)(CNC(=O)C1CCCN1S(C)(=O)=O)N1CCOCC1 (stereo not given) on Wolbachia pipientis?
Reply: 0.9982

Ask: Check COCC(C)(C#N)NC(=O)COc1ccccc1Br (stereo not given) too.
Reply: -5.931

Ask: Follow-up item: CC(=O)N1CCC(c2nn(C)c(=O)n2-c2ccccc2)CC1
Reply: -1.019

Ask: Please answer likewise for CC1CCN(CC(O)Cn2cnc3ccsc3c2=O)CC1 (stereo not given)
Reply: -6.513

Ask: Now the same for Cc1nc(COC[C@H]2CC[C@H]3[C@H](CCN3C(N)=O)O2)cs1
Reply: -9.234

Ask: Another: COCCN1C(=O)[C@H]2CC[C@@H]1CN(c1nccc(C3CCCC3)n1)C2
Reply: -7.608

Ask: // next record O=c1c2sccc2ncn1Cc1cc(C2CC2)[nH]n1
Reply: 88.09

Ask: Repeat for the following compound: Cc1nc(C2CCCN(C(=O)c3cc(Cl)c[nH]3)C2)no1 (stereo not given)
Reply: 0.9971

Ask: And what about the compound Cc1ccccc1Oc1ncccc1CNC1CCC1 ?
Reply: -4.424

Ask: Another: O=C(NC1CCNC1)C1(N2CCCCC2)Cc2ccccc2C1 (stereo not given)
Reply: 108.7

Ask: Next compound up: CS(=O)(=O)c1ccc2c(c1)N(C(=O)Cc1ccc(F)cc1)CCC2
Reply: 9.452

Ask: Now consider COc1c(C2CCCN2C(=O)c2ccc3cc[nH]c3c2)c(C)nn1C (stereo not given) .
Reply: -0.02537

Ask: Now consider CC(C)Nc1cc(N2CCN(Cc3ccccc3)C(CCO)C2)ncn1 (stereo not given) .
Reply: 10.47

Ask: Field entry: C[C@@H]1CN(C(=O)C2(N3CCCCC3)Cc3ccccc3C2)C[C@H](C)O1
Reply: 1.52

Ask: Request: CNC(=O)C1CN(c2cc(C)ncn2)CCN1Cc1ccccc1 (stereo not given)
Reply: 91.54

Ask: Queued: Cc1cc(N2CCN(Cc3ccccc3)CC(O)C2)nc(N)n1 (stereo not given)
Reply: 4.027

Ask: Queued: O=C(Cn1cnc2ccccc2c1=O)Nc1cc(C2CC2)n[nH]1
Reply: 0.387

Ask: Note, next up: CN(Cc1cc(C2CC2)[nH]n1)Cc1cc2ccc(F)cc2[nH]c1=O
Reply: -8.263

Ask: Moving on to the next compound: C[C@@H]1CN(C2(C(=O)N3CCCCCC3)Cc3ccccc3C2)C[C@H](C)O1
Reply: 10.21

Ask: Another compound to check: CC(C)(C)c1noc(CNc2ccccc2N2CCC(O)CC2)n1
Reply: -3.978

----------
# Tested on: Wolbachia pipientis
# ASSAY NOTES: Anti-Wolbachia Cell-Based Screen
# Type: functional
# Parameters: scale not given: in the data most compounds retested in dose-response had high values
# EXPERIMENTAL PARAMETERS: 5 µM
Out of some 48,000 compounds screened, about 13,000 (27%) showed an effect of 50% or more. The list shows a part of the results.
ENDPOINT NAME: Percent Effect (%)
The figure you give is taken to be in %; do not add the unit.

Ask: Would you mind telling me what Percent Effect value was observed for CC(NC(=O)NCC1(c2ccc(Cl)cc2)CC1)c1nncn1C (stereo not drawn) ?
Reply: 123.5

Ask: And then Cc1nc(CCCNC(=O)C2CC(=O)N(C3CCCC3)C2)sc1C (stereo not drawn) , what is it?
Reply: -46.61

Ask: Can you check CN(C)CCNC(=O)c1ccc(OC2CCN(C(=O)CO)CC2)c(Cl)c1 next?
Reply: 12.3
